Tested on: SNB-19 CNS
Test: NCI tumour cell line growth inhibition, 48 h; in the data active = GI50 below about 0.43 µM; inactive = the rest
Write down one outcome, taken from active, inactive

Molecule: COc1c2ccccc2c(O)c2c(=O)c(C(=O)O)cn(C)c12
Target Under Test: SNB-19 CNS
Class: inactive

QUERY: // outcome(item) with item = `CC(C)(C)OC(=O)NCCCCCCCCn1c2c(c3ccccc3c1=O)C(=O)c1ccccc1-2`
RESULT: inactive

QUERY: What outcome does the record of this test show for `COc1cc(NN=C(c2ccc(O)cc2)c2ccc(O)cc2)c([N+](=O)[O-])cc1[N+](=O)[O-]` ?
RESULT: inactive

QUERY: What was the test verdict on `CCC(C(=O)[O-])C(=O)[O-].CCC(C(=O)[O-])C(=O)[O-].N.N.NCCCCCN.[Pt+4].[Pt+4]` ?
RESULT: inactive

---

Test system: MALME-3M melanoma
Test: NCI tumour cell line growth inhibition, 48 h
Reported Metric: TGI

Molecule: CC12O[C@H](c3ccccc3)[C@H](c3ccccc3)N1C(=O)C1(C(=O)OCc3ccccc3)CC12 (stereo partly drawn)
Obs Value: > 100 µM
--
Molecule: CCSc1nc2sc(C)c(C)c2c(=O)n1-c1ccc(C(=O)O)cc1
Obs Value: > 100 µM

QUERY: Name the recorded TGI for `COc1cc2c3c(n(CCCN)c(=O)c2cc1OC)-c1ccc(F)cc1C3=O` .
RESULT: 28.5 µM

QUERY: // TGI lookup, key: `Nc1ccc(C#Cc2cncnc2Nc2ccc(OCc3cccc(F)c3)c(Cl)c2)cc1`
RESULT: > 25 µM

QUERY: Suppose we examine the molecule Nc1nc2c(ncn2CCOC(c2ccccc2)P(=O)(O)O)c(=O)[nH]1 (stereo not drawn) ; what TGI value has been reported?
RESULT: > 100 µM

QUERY: Please report the recorded TGI for `CC1=C/C(=N/N2C(=O)/C(=C/c3ccc(Cl)cc3)N=C2c2ccccc2)CC(C)(C)C1` .
RESULT: > 100 µM

QUERY: Query: TGI; subject: `COc1nn(Cc2ccccc2F)c2ccc([N+](=O)[O-])cc12`
RESULT: > 100 µM

QUERY: Name the reported TGI value associated with the molecule `Cc1ccc(N=C2CSc3nnc(-c4csc5c4CCCC5)n3N2)cc1`
RESULT: > 50 µM

QUERY: Param item = `CN(C)c1ccc(/C=C2\CNC/C(=C\c3ccc(N(C)C)cc3)C2=O)cc1` ; retrieve measured TGI.
RESULT: > 100 µM

---

Overview of reported TGI across a group of compounds:
System: M14 melanoma
Assay: NCI tumour cell line growth inhibition, 48 h

Example cases with answers are listed next.
Compound: CC(SC(=S)N1CCCCC1)C(=O)Nc1nnc(-c2ccc(Cl)cc2)o1 (stereo unspecified)
Target Under Test: M14 melanoma
Obs Value: 53.7 µM
//
Compound: Clc1ccc(OCc2nnc3sc(-c4ccc(-c5ccc(Cl)cc5Cl)o4)nn23)c(Cl)c1
Target Under Test: M14 melanoma
Obs Value: 76.5 µM
//
Compound: Oc1ccc2c(c1)OCC(O)(c1ccccc1O)C2 (stereo unspecified)
Target Under Test: M14 melanoma
Obs Value: > 100 µM
//
Compound: O=C(O)c1c(-c2c3ccc(=O)cc-3oc3cc(O)ccc23)cc2ccccc2c1-c1ccccc1
Target Under Test: M14 melanoma
Obs Value: > 100 µM
//
Compound: CC1C=C(OC(=O)c2ccccc2)C(=O)C(n2cc(F)c(=O)n(C(=O)c3ccccc3)c2=O)O1 (stereo unspecified)
Target Under Test: M14 melanoma
Obs Value: > 100 µM

Turning now to a further compound:
QUERY: Returns the measured TGI for the input compound. Input: `Nc1ccc(C#Cc2cncnc2Nc2ccc(OCc3cccc(F)c3)c(Cl)c2)cc1`
RESULT: > 25 µM
